measured-parameter: melting point (°C)

Some solved cases for reference:
[
  {
    "compound": "Cc1cc/c(=N\\C#N)n(-c2cccc(C(F)(F)F)c2)c1 [Example 3]",
    "melting point (°C)": 165
  },
  {
    "compound": "Cc1ccc(=O)n(-c2cccc(C(F)(F)F)c2)c1 [IX-1]",
    "melting point (°C)": 95
  },
  {
    "compound": "Cc1ccc(S(=O)(=O)/N=c2\\ccc(C)cn2-c2cccc(C(F)(F)F)c2)cc1 [Example 7]",
    "melting point (°C)": 174
  },
  {
    "compound": "Cc1cc/c(=N\\C(=O)C(F)(F)F)n(-c2cccc(C(F)(F)F)c2)c1 [Example 1]",
    "melting point (°C)": 115
  },
  {
    "compound": "Cc1cccn(-c2cccc(C(F)(F)F)c2)c1=O [IX-34]",
    "melting point (°C)": 122
  }
]

(a) CNC(=O)/N=c1\ccc(C)cn1-c1cccc(C(F)(F)F)c1 [Example 4]
(b) Cc1ccc(=NS(=O)(=O)C(F)(F)F)n(-c2cccc(C(F)(F)F)c2)c1 [Example 5]
Of a and b , whose reported melting point is numerically smaller? Give the label under which the chosen entry appears.
a

Data credit: patent US7329757B2
